- Test: Enzyme screens for resolution of diastereomeric mixture CHDP(MEMC)/THLP(MEMC) (Example 9)
- Type: biochemical
- Assay context: 0.050M each isomer; pH 7.0; 5 h or 24 h; 5.0 to 50 mg/mL enzyme; 25° C.
Recorded measurements of % de (diastereomeric excess of the D-isomer, CHDP(MEMC)), one per entry
Readout label: % de (diastereomeric excess of the D-isomer, CHDP(MEMC))

# Molecule, Test result
data = [
    ("protease, trypsin bovine pancreas: commercial trypsin, source bovine pancreas (protein, UniProt P00760 24-246, looked up) Serine protease 1: IVGGYTCGANTVPYQVSLNSGYHFCGGSLINSQWVVSAAHCYKSGIQVRLGEDNINVVEGNEQFISASKSIVHPSYNSNTLNNDIMLIKLKSAASLNSRVASISLPTSCASAGTQCLISGWGNTKSSGTSYPDVLKCLKAPILSDSSCKSAYPGQITSNMFCAGYLEGGKDSCQGDSGGPVVCSGKLQGIVSWGSGCAQKNKPGVYTKVCNYVSWIKQTIASN", "0%"),
    ("protease, type XXVII: commercial enzyme preparation, (Nagarase) (protein, UniProt P00782 108-382, looked up) Subtilisin BPN': AQSVPYGVSQIKAPALHSQGYTGSNVKVAVIDSGIDSSHPDLKVAGGASMVPSETNPFQDNNSHGTHVAGTVAALNNSIGVLGVAPSASLYAVKVLGADGSGQYSWIINGIEWAIANNMDVINMSLGGPSGSAALKAAVDKAVASGVVVVAAAGNEGTSGSSSTVGYPGKYPSVIAVGAVDSSNQRASFSSVGPELDVMAPGVSIQSTLPGNKYGAYNGTSMASPHVAGAAALILSKHPNWTNTQVRSSLENTTTKLGDSFYYGKGLINVQAAAQ", "4%"),
    ("protease, type VIII: commercial enzyme preparation, source Bacillus licheniformis (protein, UniProt P00780 106-379, looked up) Subtilisin Carlsberg: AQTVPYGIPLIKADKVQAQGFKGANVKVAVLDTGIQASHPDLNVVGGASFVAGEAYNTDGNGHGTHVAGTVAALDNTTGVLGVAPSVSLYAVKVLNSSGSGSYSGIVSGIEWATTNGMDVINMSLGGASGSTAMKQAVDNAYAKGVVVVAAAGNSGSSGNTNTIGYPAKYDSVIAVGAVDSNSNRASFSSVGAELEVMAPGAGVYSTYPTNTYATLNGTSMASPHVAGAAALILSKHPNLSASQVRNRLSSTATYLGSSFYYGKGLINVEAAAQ", "16%"),
    ("protease (Chirazyme P1): commercial enzyme preparation, source Bacillus licheniformis (protein, UniProt P00780 106-379, looked up) Subtilisin Carlsberg: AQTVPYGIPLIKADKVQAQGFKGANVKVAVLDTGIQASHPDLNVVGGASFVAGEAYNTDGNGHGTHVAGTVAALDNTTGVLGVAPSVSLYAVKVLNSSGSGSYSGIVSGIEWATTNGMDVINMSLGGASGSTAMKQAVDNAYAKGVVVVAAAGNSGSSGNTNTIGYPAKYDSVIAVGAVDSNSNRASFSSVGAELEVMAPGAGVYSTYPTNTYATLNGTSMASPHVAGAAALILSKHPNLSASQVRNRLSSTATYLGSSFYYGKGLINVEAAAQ", "26%"),
]
